- System: Noggin (protein binding on small-molecule microarray)
- METHOD DESCRIPTION: small molecules binding Noggin protein – biochemical, 635/667 nm fluorescence, primary screen (AID 1095);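 also: score merges 667 nm feature fluorescence with signal to noise over triplicate slides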
- MEASUREMENT SETUP: 635 nm fluorescence, higher = more signal
The compounds listed here are annotated with their composite z-score.

[
  {
    "COMPOUND STRING": "COc1ccc(C#Cc2ccc3c(c2)[C@]2(C(=O)N3)[C@H](c3ccc(OCCO)cc3)N3[C@H](c4ccccc4)[C@H](c4ccccc4)OC(=O)[C@H]3[C@@H]2C(=O)Nc2nc3ccccc3s2)cc1",
    "READOUT TYPE": "composite z-score",
    "RESULT": 0.57
  },
  {
    "COMPOUND STRING": "NC(=O)NCC#Cc1ccc2c(c1)[C@]1(C(=O)N2)[C@H](C(=O)NC[C@H](O)c2ccccc2)[C@H]2C(=O)O[C@H](c3ccccc3)[C@H](c3ccccc3)N2[C@@H]1c1ccccc1OCCO",
    "READOUT TYPE": "composite z-score",
    "RESULT": 0.307
  }
]

### Prompt Can you look up the measured composite z-score of C=CCOC(=O)[C@H]1[C@@H]2C(=O)O[C@@H](c3ccccc3)[C@@H](c3ccccc3)N2[C@@H](c2ccc(OCCOC(=O)[C@@H]3C[C@@H]4C(=O)NCC(=O)N4[C@@H]3c3ccc(O)cc3)cc2)[C@]12C(=O)Nc1ccc(I)cc12 for me?
### Response 1.64

### Prompt Quick one: composite z-score for CCCC[C@H]1OB(O)C[C@H]2C1=C(C)Cn1c(=O)n(-c3ccccc3)c(=O)n12 ?
### Response 0.688

### Prompt What composite z-score value was documented for this compound, [N-]=[N+]=NCc1ccccc1[C@@H]1OC(c2ccc(OCCCO)cc2)=N[C@]1(Cc1ccccc1N=[N+]=[N-])C(N)=O ?
### Response 0.37

----------
- METHOD DESCRIPTION: plasmodial surface anion channel blockers, osmotic lysis – cell-based, P. falciparum Indochina, OD700, 1 h, primary screen (AID 1154)
- MEASUREMENT SETUP: P. falciparum Indochina infected RBC osmotic lysis, higher = more signal, called active from +8 up or from −8 down
Classification field: enter true for z-score values not below 3, false for values below it.

[
  {
    "COMPOUND": "CCOC(=O)C=Cc1cccc(OC)c1O",
    "CATEGORY": "true"
  },
  {
    "COMPOUND": "CC(C)[Si]1(C(C)C)O[C@@H](c2ccccc2)c2cc(-c3ccc(-c4ccc(Cl)c(Cl)c4)o3)nc(CCc3ccccc3)c21",
    "CATEGORY": "true"
  },
  {
    "COMPOUND": "C[N+](C)(C)CCCC[C@@H]1NC(=O)[C@H]2C[C@@H](C(=O)O)[C@@H](c3cccc(OCCO)c3)N2C1=O",
    "CATEGORY": "false"
  },
  {
    "COMPOUND": "CC(=O)N1Cc2ccccc2C[C@@]2(N=C(c3ccc(OCCCO)cc3)O[C@H]2c2ccccc2)C1=O",
    "CATEGORY": "true"
  },
  {
    "COMPOUND": "O=C1C2C=CC(C(O)CCc3ccccc3)N(Nc3ccccc3)C2C(=O)N1c1ccccc1 (stereo not drawn)",
    "CATEGORY": "false"
  }
]

With those in mind, consider the next compound.
### Prompt z-score >= 3 for CCCCN1CC=CC23O[C@@H]4/C=C\CCCOC(=O)C4[C@H]2C(=O)N(C(C)CO)[C@@H]3C1=O (stereo partly drawn) ?
### Response false

----------
Listed here: items and their measured z-score.
- METHOD DESCRIPTION: S6 kinase pathway phospho-S6 level changes – cell-based, A549, cytoblot, luminescence, serum-stimulated, primary screen (AID 1158);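 also: serum-stimulated A549 lung adenocarcinoma cells; signal is phosphorylated S6 detected by cytoblot immunostaining with HRP secondary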
- MEASUREMENT SETUP: 5 h, higher = more signal
Please give only the number in your answer, with no unit.

Some solved entries appear below for comparison.
[
  {
    "MOLECULE": "COC(=O)[C@@]1(Cc2ccc(F)cc2)[C@H]2c3cc(C(=O)N(C)C)n(Cc4ccccn4)c3C[C@H]2CN1C(=O)c1ccccc1",
    "z-score": 0.388
  },
  {
    "MOLECULE": "O=C(NCC(F)(F)F)[C@@H]1c2ccccc2C(=O)N(Cc2ccccc2)[C@H]1c1ccc(CO)cc1",
    "z-score": -0.325
  }
]

We next turn to a different molecule, shown below.
### Prompt I would be grateful if you could share the reported z-score for O=C1NC(=O)C2C1C=CC(C(O)c1cccs1)N2Nc1ccccn1 (stereo not drawn) .
### Response -0.726

----------
- METHOD DESCRIPTION: plasmodial surface anion channel blockers, osmotic lysis – cell-based, P. falciparum Indochina, OD700, 2 h, primary screen (AID 1155);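 also: lysis reports solute entry through the parasite surface anion channel PSAC; channel blockers reduce lysis of infected cells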
- MEASUREMENT SETUP: P. falciparum Indochina infected erythrocytes, higher = more signal, called active from +8 up or from −8 down
Kindly return label 1 if reported z-score is no lower than 0.5; return label 0 if it is lower.

[
  {
    "MOLECULE": "O=C1O[C@@H](c2ccccc2)[C@@H](c2ccccc2)N2[C@@H](c3ccc(O)cc3)[C@]3(C(=O)Nc4ccccc43)[C@@H](C(=O)N3CCCCCCC3)[C@H]12",
    "CATEGORY": "label 0"
  },
  {
    "MOLECULE": "C=CC[C@]1(C(=O)O)N=C(c2ccc(OCCCO)cc2)O[C@H]1c1ccccc1CN=[N+]=[N-]",
    "CATEGORY": "label 1"
  },
  {
    "MOLECULE": "[N-]=[N+]=NCc1ccccc1[C@@H]1OC(c2ccc(OCCCO)cc2)=N[C@]1(Cc1ccccc1)C(=O)O",
    "CATEGORY": "label 1"
  },
  {
    "MOLECULE": "COCCOC(=O)N1C(=O)[C@@]2(c3cc(C#Cc4ccc(OC)cc4)ccc31)[C@H](c1ccc(O)cc1)N1[C@H](c3ccccc3)[C@H](c3ccccc3)OC(=O)[C@H]1[C@@H]2C(=O)N1CCN(c2ncccn2)CC1",
    "CATEGORY": "label 1"
  },
  {
    "MOLECULE": "O=[N+]([O-])c1ccc(C[n+]2ccc(CCCO)cc2)o1",
    "CATEGORY": "label 0"
  }
]

### Prompt Given the entry CN(C)CCCCNC(=O)[C@@H]1C[C@@H]2C(=O)N[C@@H](CCCCN)C(=O)N2[C@@H]1c1cccc(OCCO)c1 , answer whether its z-score meets or surpasses 0.5.
### Response label 0

### Prompt Textbook exercise: given the entry Cc1ccc(N2C(=O)c3ccccc3[C@@H](C(=O)NCC(C)C)[C@@H]2c2ccc(CO)cc2)nc1 , state whether its z-score is greater than or equal to 0.5.
### Response label 0

### Prompt Assess whether reported z-score for CN1C(=O)C2C=CC(C(O)c3ccccc3)N(NC(=O)OC(C)(C)C)C2C1=O (stereo not given) sits at 0.5 or higher.
### Response label 1

### Prompt Record O=C1O[C@H](c2ccccc2)[C@H](c2ccccc2)N2[C@H]1[C@@H](C(=O)N1CCCCCCC1)[C@]1(C(=O)Nc3ccc(C#CC4=CCCCC4)cc31)[C@H]2c1ccc(O)cc1 ; criterion: z-score no lower than 0.5. Met?
### Response label 0

### Prompt Test whether the molecule COc1ccc([Si](C)(C)[C@@H]2[C@@H](CCO)O[C@]3(C(=O)N(Cc4cccc(N5CCCCC5=O)c4)c4ccccc43)[C@H]2C)cc1 records z-score of 0.5 or higher.
### Response label 1

----------
- METHOD DESCRIPTION: growth modulation of vineyard yeast isolate – strain RM11-1a, OD600, basal, 24 h, primary screen (AID 1177);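 also: cultures grown under basal conditions with no added stressor; test concentration not given here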
- MEASUREMENT SETUP: S. cerevisiae RM11-1a growth, OD600, 24 h; higher = more signal, called active from +8 up or from −8 down
READOUT TYPE: z-score
Answer with the value's number alone.

Example results:
[
  {
    "COMPOUND STRING": "[N-]=[N+]=NCc1ccccc1C[C@]1(C(=O)N2CCOCC2)N=C(c2ccc(OCCCO)cc2)O[C@H]1c1ccccc1",
    "RESULT": 0.328
  },
  {
    "COMPOUND STRING": "Cc1ccc(S[C@]2(C(=O)NCCCN(C)C)CC(=O)N(C(C)C)[C@@H]2c2ccc(CO)cc2I)cc1",
    "RESULT": -1.31
  },
  {
    "COMPOUND STRING": "COC(=O)[C@@]1(Cc2ccc(F)cc2)[C@H]2c3cc(C(=O)N(C)C)n(Cc4ccccn4)c3C[C@H]2CN1C(=O)c1ccccc1",
    "RESULT": -0.319
  },
  {
    "COMPOUND STRING": "O=C1O[C@H](c2ccccc2)[C@H](c2ccccc2)N2[C@H]1[C@@H](C(=O)Nc1nc3ccccc3s1)[C@]1(C(=O)Nc3ccc(C#CC4=CCCCC4)cc31)[C@H]2c1ccc(OCCO)cc1",
    "RESULT": 1.46
  },
  {
    "COMPOUND STRING": "[N-]=[N+]=NCc1ccccc1[C@H]1OC(c2ccc(OCCCO)cc2)=N[C@@]1(Cc1ccccc1)C(=O)O",
    "RESULT": 0.816
  },
  {
    "COMPOUND STRING": "C=CCN1C(=O)[C@@]2(O[C@@H](CCO)[C@H]([Si](C)(C)c3ccc(OC)cc3)[C@H]2C)c2cc(NC(C)=O)ccc21",
    "RESULT": 1.48
  },
  {
    "COMPOUND STRING": "O=C1O[C@H](c2ccccc2)[C@H](c2ccccc2)N2[C@H]1[C@@H](C(=O)NC[C@H](O)c1ccccc1)[C@]1(C(=O)Nc3ccc(C#CC4=CCCCC4)cc31)[C@H]2c1ccc(O)cc1",
    "RESULT": 1.62
  },
  {
    "COMPOUND STRING": "Cc1cccc(/C=C/C=O)c1",
    "RESULT": -0.181
  }
]

### Prompt Entry COCCCNC(=O)[C@@]1(Sc2ccc(C)cc2)CC(=O)N(Cc2ccccc2)[C@@H]1c1ccc(CO)cc1 has what z-score?
### Response -0.194

### Prompt Can you look up the measured z-score of COC(=O)[C@@]1(Cc2ccc(OC)cc2)[C@H]2c3cc(C(=O)N(C)C)n(Cc4ccc(OC)c(OC)c4)c3C[C@H]2CN1C(=O)c1ccccc1 for me?
### Response 2.19
